System: human pancreatic carcinoma cell line Panc-1
test description: MTT cell viability assay, Panc-1
Assay type: cell-based
conditions: 72 h, serial dilutions 50-1.56 µM, n = 3, read-out: EC50 against Panc-1
measured property: EC50 (µM)
Dear colleague, please return just the value in µM, with no unit written.

Enquiry: // map `CN(C)c1ccc(C=NNC(=O)CSc2nnc(CCNc3ccccc3)n2-c2ccccc2)cc1` to recorded EC50 (system: human pancreatic carcinoma cell line Panc-1)
Return: 26.2

Enquiry: Okay, and `O=C(CSc1nnc(CCNc2ccccc2)n1-c1ccccc1)NN=C1C(=O)Nc2ccc(OC(F)(F)F)cc21` ?
Return: 38.5
